Molecular target: T1, hBMPR1B-His (human BMPR1B extracellular domain, residues K14 to R126, with C-terminal 9x-Histidine tag) (human, UniProt O00238 14-126)
T1 construct: Residues K14-R126 are counted on the hBMPR1B ORF (NM_001203); The IgK signal peptide of the vector is left out; also called hBMPR1B-CHis; human BMPR1B-his
T1 sequence: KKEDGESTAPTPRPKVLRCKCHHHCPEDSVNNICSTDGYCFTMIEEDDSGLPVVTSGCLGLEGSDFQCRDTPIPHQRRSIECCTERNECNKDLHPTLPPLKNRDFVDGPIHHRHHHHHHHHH
Experiment: Biacore
measure: Kd (nM)
Enter your answer as a number in nM; do not include the unit.

binder: SC91.11 (antibody, V domains shown) VH: QVQLQQPGAELVKPGASVKLSCKASGYTFTTYWMHWVKQRPGRGLEWIGRIDPNSGGTKYNEKFKSKATLTVDKPSSTACMQLSSLTSEDSAVYYCASRRGDIDVWGTGTTVTVSS VL: DIVMTQSQKFMSTSVGDRVSVTCKASQNVGTNVFWYQQKPGQSPKALIYAASYRYSGVPDRFTGSGSGTDFTLTISNVQSEDLADYFCQQYDSYPLTFGDGTKLELR
unit-string: nM
Kd: 1.15

Now for a further binder.
Task: Need Kd of SC91.19 (antibody, V domains shown) VH: QIQLVQSGPELKKPGETVKISCKASGYTFTTYGMNWVKQAPGKGLKWMGWINTYSGVPSSANDFKGRFAFSLETSASTAYLQINNLKNEDTATYFCARSELRNWYFDVWGTGTTVTVSS VL: SFVMTQTPKFLLVSAGDRVTITCKASQSVGNDVAWYQQKPGQSPKLLIYYASNRYTGVPDRFTGSGYGTDFTFTISTVQAEDLAVYFCQQDYSSPFTFGSGTKLEMK , thanks.
Result: 8.46
